assayed_system: human PD-L1 (Homo sapiens (Human))
Sequence (Q9NZQ7 19-290): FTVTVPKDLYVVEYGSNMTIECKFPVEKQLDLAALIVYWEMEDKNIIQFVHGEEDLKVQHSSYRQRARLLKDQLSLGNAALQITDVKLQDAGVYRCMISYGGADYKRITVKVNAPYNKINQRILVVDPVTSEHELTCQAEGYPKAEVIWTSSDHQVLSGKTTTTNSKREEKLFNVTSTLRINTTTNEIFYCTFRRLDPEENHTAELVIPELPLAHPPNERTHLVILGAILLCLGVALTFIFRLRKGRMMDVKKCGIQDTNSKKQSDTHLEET
procedure_summary: T cell activation luciferase reporter cell culture system (T Cell Activation Assay)
Format: cell-based
assay_conditions: luciferase reporter assay; PD-L1 aAPC/CHO-K1 cells with PD-1 effector Jurkat T cells
pEC50: −log10 of the molar value.

| molecule | assayed_system | pEC50 |
| --- | --- | --- |
| COc1cc(-c2nccc(-c3cccc(-c4ccc(CN[C@@H]5CCC(=O)NC5)c(OC)n4)c3Cl)c2Cl)ccc1CNC1CCN(C(C)=O)CC1 [Example 541] | human PD-L1 (Homo sapiens (Human)) | 7.03 |
| CNCc1ccc(-c2cccc(-c3ccnc(-c4ccc(CNCC56CC(C(=O)O)(C5)C6)c(OC)c4)c3Cl)c2Cl)nc1OC [Compound 228] | human PD-L1 (Homo sapiens (Human)) | 7.12 |
| CNCc1ccc(-c2cccc(-c3ccnc(-c4ccc(CNC[C@@H](O)CC(=O)O)c(OC)c4)c3Cl)c2Cl)nc1OC [Compound 220] | human PD-L1 (Homo sapiens (Human)) | 7.12 |
| COc1cc(-c2nccc(-c3cccc(-c4ccc(CN[C@H]5CC[C@@H](OC)CC5)c(OC)n4)c3Cl)c2Cl)ccc1CN[C@H]1CC[C@@H](OC)CC1 [Example 448] | human PD-L1 (Homo sapiens (Human)) | 7.12 |
| COc1nc(-c2cccc(-c3ccnc(-c4ccc5c(CNC[C@@H]6CCO6)cn(C)c5c4)c3Cl)c2Cl)ccc1CNC[C@@H]1CCC(=O)N1 [Compound 34] | human PD-L1 (Homo sapiens (Human)) | 6.91 |
| COc1nc(-c2cccc(-c3ccnc(-c4ccc5c(c4)CCC[C@@H]5NC[C@@H]4CCC(=O)N4)c3Cl)c2Cl)ccc1CNC[C@@H]1CCC(=O)N1 [Compound 184] | human PD-L1 (Homo sapiens (Human)) | 7.09 |
